Biological target: Tyrosine-protein kinase BTK (Homo sapiens)
Sequence (Q06187 whole entry): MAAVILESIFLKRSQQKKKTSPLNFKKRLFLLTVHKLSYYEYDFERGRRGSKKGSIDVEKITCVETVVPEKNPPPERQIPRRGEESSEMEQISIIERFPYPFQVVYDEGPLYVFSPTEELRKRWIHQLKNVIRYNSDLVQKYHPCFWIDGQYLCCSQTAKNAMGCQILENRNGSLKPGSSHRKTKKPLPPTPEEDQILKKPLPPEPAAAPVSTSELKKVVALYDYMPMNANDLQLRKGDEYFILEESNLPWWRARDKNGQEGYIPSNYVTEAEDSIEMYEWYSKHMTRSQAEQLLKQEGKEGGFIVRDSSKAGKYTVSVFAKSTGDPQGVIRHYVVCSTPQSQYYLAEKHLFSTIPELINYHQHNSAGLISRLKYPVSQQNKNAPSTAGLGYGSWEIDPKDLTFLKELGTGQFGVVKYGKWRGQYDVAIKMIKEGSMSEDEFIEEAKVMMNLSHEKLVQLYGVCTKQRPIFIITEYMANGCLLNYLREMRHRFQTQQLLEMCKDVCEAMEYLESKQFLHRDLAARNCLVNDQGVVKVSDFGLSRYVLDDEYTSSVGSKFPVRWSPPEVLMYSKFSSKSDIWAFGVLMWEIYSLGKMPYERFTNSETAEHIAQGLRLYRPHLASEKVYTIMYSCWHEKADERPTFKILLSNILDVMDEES
quantity: pIC50
Please note pIC50 is a logarithmic value: minus log10 of concentration in mol/L. Answer with that number alone.

// assay Tyrosine-protein kinase BTK (Homo sapiens), entry O=C(O)c1cc(P(=O)(O)O)n[nH]1 , pIC50 value = 4.77

---

Biological target: Epsin-1 (Homo sapiens, UniProt Q9Y6I3)
Sequence (Q9Y6I3 whole entry): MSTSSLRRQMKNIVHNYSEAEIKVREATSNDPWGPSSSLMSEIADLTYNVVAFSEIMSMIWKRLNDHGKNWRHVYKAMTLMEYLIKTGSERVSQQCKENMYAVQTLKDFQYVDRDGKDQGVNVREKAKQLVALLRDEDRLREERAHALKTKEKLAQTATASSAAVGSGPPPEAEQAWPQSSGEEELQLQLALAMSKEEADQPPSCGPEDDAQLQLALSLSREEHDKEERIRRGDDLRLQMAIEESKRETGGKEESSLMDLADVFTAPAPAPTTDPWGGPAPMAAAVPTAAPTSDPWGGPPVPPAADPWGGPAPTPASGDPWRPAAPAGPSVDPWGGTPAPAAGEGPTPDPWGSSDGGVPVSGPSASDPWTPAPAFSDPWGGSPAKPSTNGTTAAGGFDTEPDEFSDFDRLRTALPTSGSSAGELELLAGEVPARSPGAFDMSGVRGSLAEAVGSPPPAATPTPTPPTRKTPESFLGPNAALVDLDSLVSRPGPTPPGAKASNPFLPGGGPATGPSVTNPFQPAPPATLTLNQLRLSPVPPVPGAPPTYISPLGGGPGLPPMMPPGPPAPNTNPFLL
quantity: IC50 (µM)
Express your answer in µM, writing the number without its unit.

Record O=C(O)c1cc(P(=O)(O)O)n[nH]1 , field IC50: 46
